Value source: patent US11479587B2

- System: P. aeruginosa ATCC 10145
- measurement-protocol: CFU-assay, P. aeruginosa-cidal activity
- Type: cell-based, Pseudomonas aeruginosa
- condition-context: pH 5.5, 0.25% glucose
Entries and their MBC90
value-kind: MBC90 (µg/mL)

INSERT INTO measurements (molecule, readout_value) VALUES
  ('GHKSSSGQSSGYTQHGSGSGHSSSYEQHGSRSGQSSRSEQHGSSSGSSSSYGQHGSGSRQSL (Peptide derived from human hornerin (HRNR 933-994)) GHKSSSGQSSGYTQHGSGSGHSSSYEQHGSRSGQSSRSEQHGSSSGSSSSYGQHGSGSRQSL', 0.3),
  ('SQHKSSSGQSSGYSQHGSGSGHSSGYGQHGSRSGQSSRGDRHRSSSGSSSSYGQHGSGSRQSL (Peptide derived from human hornerin (HRNR 232-294)) SQHKSSSGQSSGYSQHGSGSGHSSGYGQHGSRSGQSSRGDRHRSSSGSSSSYGQHGSGSRQSL', 0.30),
  ('LGHGQHGSGSGQSPSPSRGRHGSGSGQSSSYGPYRSGSGWSSSRGPYESGSGHSSGLGHRER (Peptide derived from human hornerin (HRNR 995-1056)) LGHGQHGSGSGQSPSPSRGRHGSGSGQSSSYGPYRSGSGWSSSRGPYESGSGHSSGLGHRER', 0.3),
  ('GHGRQGSGSRQSPSHVRHGSGSGHSSSHGQHGSGSSYSYSRGHYESGSGQTSGFGQHESGSGQSSGY (Peptide derived from human hornerin (HRNR 295-361)) GHGRQGSGSRQSPSHVRHGSGSGHSSSHGQHGSGSSYSYSRGHYESGSGQTSGFGQHESGSGQSSGY', 0.15);
